Data provenance is patent EP1899377B1.

- system: T1, GST-human NOGO-A56 (human, UniProt Q9NQC3 586-785)
- T1 construct: GST-tagged fusion expressed in E. coli BL21 from pGEX-6P1; also called hNOGO; human NOGO 5+6 GST; not shown: Glutathione S-transferase tag encoded by vector pGEX-6P1 (N-terminal, with vector linker)
- T1 sequence: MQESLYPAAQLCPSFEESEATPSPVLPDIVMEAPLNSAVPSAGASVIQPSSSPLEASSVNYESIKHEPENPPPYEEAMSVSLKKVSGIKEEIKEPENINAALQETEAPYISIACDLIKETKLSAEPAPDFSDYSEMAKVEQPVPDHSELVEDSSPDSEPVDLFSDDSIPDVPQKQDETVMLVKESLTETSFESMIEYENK
- method_notes: SPR (Biacore), GST-human NOGO-A56 immobilised, purified antibody as analyte; single experiment
Measured pKd values are reported for all entries that follow.
Convention used: pKd is expressed as -log10 of the molar concentration.

[[record]]
binder = "H24L16 (antibody, human IgG1, kappa, V domains shown, human gamma1 mutated constant region, human kappa) VH: QVQLVQSGAEVKKPGASVKVSCKASGYTFTSYWMHWVKQRPGQGLEWIGNINPSNGGTNYNEKFKSKATLTVDTSTSTAYMELSSLRSEDTAVYYCELGQGYWGQGTLVTVSS VL: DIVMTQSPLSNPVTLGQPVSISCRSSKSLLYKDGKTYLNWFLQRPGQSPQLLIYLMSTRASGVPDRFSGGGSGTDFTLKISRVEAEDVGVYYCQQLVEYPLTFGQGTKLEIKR"
result_type = "pKd"
test_value = 8.60


We next turn to a different binder, shown below.
Consider the binder HcLc (antibody, human IgG1, kappa, V domains shown, also called chimera of 2A10; 2A10 chimeric antibody) VH: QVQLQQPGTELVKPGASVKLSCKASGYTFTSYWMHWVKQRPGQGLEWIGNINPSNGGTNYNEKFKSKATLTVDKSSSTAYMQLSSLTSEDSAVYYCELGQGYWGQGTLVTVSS VL: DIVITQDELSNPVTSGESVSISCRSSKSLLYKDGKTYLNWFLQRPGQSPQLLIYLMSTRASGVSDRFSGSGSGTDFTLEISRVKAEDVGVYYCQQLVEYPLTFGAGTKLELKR . State its measured pKd.
8.85
